Entry source: patent US20180327494A1

The following binders are listed with their measured OD values.
- study-system: T1, PDL1-Fc fusion protein (human)
- T1 construct: expressed in CHO or HEK293 cells; also called Human PDL1-Fc; recombinant human PDL1-Fc
- protocol-text: competitive ELISA, PDL1-Fc coated, 100 ng dAb and 10 ug PD1-Fc-Biotin (competitor); remaining PD1-Fc-Biotin signal
measured-endpoint: OD

{"binder": "PDL1-10 dAb (VHH, camel heavy chain single domain antibody expressed in E. coli, purified on nickel; also called antibody No. 10; not shown: His tag from expression vector PET32b) VHH: QVQLQESGGGSVQAGGSLRLSCAASGNIVSSYCMGWFRQAPGKERVGVAAIDSDGTTKYADSMKGRFTISKDNAKNTLDLQMNSLKPEDTAMYYCVARLNCPGPVDWVPMFPYRGQGTQVTVSS", "observed": "0.126 OD (405 nm)"}
{"binder": "PDL1-81 dAb (VHH, camel heavy chain single domain antibody expressed in E. coli, purified on nickel; also called antibody No. 81; not shown: His tag from expression vector PET32b) VHH: QVQLQESGGGSVQAGGSLRLSCAASGNIIRVRCMAWFRQAPGKERERGPNILTTTISTYLADSVKGRFTISQNNAKSTVYLQMNSLKPEDTAMYYCAADSFGYPTCPGPASSGAFQYWGQGTQVTVSS", "observed": "0.429 OD (405 nm)"}
{"binder": "PDL1-27 dAb (VHH, camel heavy chain single domain antibody expressed in E. coli, purified on nickel; also called antibody No. 27; not shown: His tag from expression vector PET32b) VHH: QVQLQESGGGSVQAGGSLRLSCAASGNISSRRCMAWFRQAPGKERERVANILTTTGNTYLADSVKGRFTISQNNAKSTVYLQMNSLKPEDTAMYYCAADSFHDPTCTVVASSGAFQYWGQGTQVTVSS", "observed": "0.161 OD (405 nm)"}
{"binder": "PDL1-87 dAb (VHH, camel heavy chain single domain antibody expressed in E. coli, purified on nickel; also called antibody No. 87; not shown: His tag from expression vector PET32b) VHH: QVQLQESGGGSVQAGGSLKLSCAASGYIFSSCGMGWYRQAPGKERELVSTISSDGTTSYADSVKGRFTISQDNAKNTLYLQMNSLKTEDTAVYYCVADCPPIPEFTSCSGGYCLSGDYWGQGTQVTVSS", "observed": "0.897 OD (405 nm)"}
